Reference for the values: PubChem BioAssay (EPA / NIEHS)

Read-out: Interleukin-8 (IL8), CXCL8 (gene 3576)
Assay comment: BSK_SAg_IL8: BioMAP Diversity Plus: SAg Assay for Interleukin-8 (IL8) Biomarker Activity (AID 2283094)
Applied conditions: primary human HUVEC with PBMC; actives raise or lower the signal
Active and inactive are the calls of the source. How the source made its calls: active means hit-call score of the fitted dose curve at least 0.9, where 1 is the maximum; inactive means score below 0.9.
Outcomes: True for active, False for inactive

# Compound, Answer label
data = [
    ("Cc1ccc([N+](=O)[O-])cc1N", "False"),
    ("Nc1ccc(C(=O)O)cc1", "False"),
    ("c1ccc2sc(SSN3CCOCC3)nc2c1", "False"),
    ("CC(Cl)COP(=O)(OCC(C)Cl)OCC(C)Cl (centres undefined)", "False"),
    ("C=CC(=O)NCOCCCC", "False"),
    ("C1CNCCN1", "False"),
    ("CC1=CC=C(C(C)C)CC1", "False"),
    ("C=CC(=O)OCCCCCCCC(C)C", "False"),
    ("Clc1cc(Cl)c(Cl)c(Cl)c1Cl", "False"),
    ("C=CC(=O)NC(C)(C)C", "False"),
    ("CCOC(=O)C1=NOC(c2ccccc2)(c2ccccc2)C1", "False"),
    ("CCC1(C)C(=O)N(Cl)C(=O)N1Cl (centres undefined)", "False"),
    ("CCCCCCCO", "False"),
    ("O=C(Cl)c1c(Cl)c(Cl)c(C(=O)Cl)c(Cl)c1Cl", "False"),
    ("CC=C(C)C=CC=C(C)C", "True"),
    ("COc1ccc(C(=O)c2ccccc2)c(O)c1", "False"),
    ("CCCCCC1=CCCC1=O", "False"),
    ("C=CC(=O)OCCCCCCOC(=O)C=C", "True"),
    ("CCCCCCCCCCCC(C)=O", "True"),
    ("COC(OC)(C(=O)c1ccccc1)c1ccccc1", "False"),
    ("CC(C)c1cccc(C(C)C)c1N", "False"),
    ("Oc1ccccc1Cc1ccccc1O", "False"),
    ("C=CC(=O)OCC(C)OCC(C)OCC(C)OC(=O)C=C (centres undefined)", "True"),
    ("CC(CCC(=O)O)(c1ccc(O)cc1)c1ccc(O)cc1", "False"),
]
